From: the domain aggregation screens of Martell et al. (2025)

- Measurement description: soluble fraction after stress (log2 fold change); higher = more stays soluble; pooled small domains, quantitative proteomics
- Measurement context: stress: 50 degC
As shown below, each of these sequences has a reported soluble fraction (log2) value.
Respond using a number only.

Known results for sequences:
{"columns": ["Residue string", "soluble fraction (log2)"],
 "data": [
  ["HMESAESRVDLIGMIGEAITDLRPAGTAQFGEERIDVVSESEWITEGSTVKVVSAEGYRHVVRVME", -0.162],
  ["HMKRIFEKKVVTESLNGLRLDKAAATLFADFSRNELGQWIKDEALLVNGKAKKVKEKVSEGDVLALDVELI", 0.0881],
  ["HMFLTSDEGKIMQLLEDKQRITRKDAQELLGVSQSTAGRILKTLVDNGQITQRGGGRTTRYELIK", 0.184],
  ["HMQISMQNIASVKIDDLSDEQIQEFSTKYTAAGYSFPDVENVAKQKGMPSSEIEKLRQRVLTAQNTQEK", -0.163],
  ["HMYAHTPEMEAMNELGLEPPVTLDEIKKTYKTLVKKYHPDHNKEDPEAEEKLKKVNMAYTILKVAYTEFEK", -0.147]
]}

query: Sample "HMYSRQRDLILKALRENVVHPTADFIYTVLKEKEPNLSLATVYRNLNLLANEGIIRKIEGLDGVAHFDH" — what was its soluble fraction (log2)?
result: -1.46

query: What do we get for "HMFDTVKIGKRIAELRKKRDMTQFELADRLGISYQAVSNWERGNSMPDIAKLPELAEIFGVTVDEILG" ?
result: 0.161

query: "HMFDDLSTNLRDLAHNYIEKYSPSKQQLKVFLLKKYLMKFKGSKTKKEISEIIDKIISNLEENKYLNDEL" , same question.
result: 0.0632

====

- Measurement description: soluble fraction after stress (log2 fold change); higher = more stays soluble; pooled small domains, quantitative proteomics
- Measurement context: stress: 50 degC
Quick list: soluble fraction (log2) per entry.
Please state the value as a number alone, without comment.

{"columns": ["Residue string", "Experimental result"],
 "data": [
  ["HMNQDQDLSRIKGIGPEMVDRLHAQGVETLEQIAAMQMEQLKKLDQQISGNGKAVREQWAEQAKQLLTT", 0.0638]
]}

query: Which soluble fraction (log2) is reported for this sequence? "HMKPALFSADELNRLYRYGLSLTGERDRAYDLLQTALEKYLRQSQAPANAMRYVRKIMHNQFIDDYR"
result: -1.13

query: Same thing, different sequence: "HMSVGDLLENLIRETRAQFSAPPESLGVAEKRRFVALLSQKGGFLLKGAVSRAASVLGVSEQTVYRYLKDS"
result: -0.218

query: Also "HMPQIDLYPFEVRIEQDNNAAEYAVRFLDVPNIIGSGASIDEAIVEARGNLKEYLDYLIDTNRDIPLPS" , if possible.
result: -0.412

====

- Measurement description: soluble fraction after stress (log2 fold change); higher = more stays soluble; pooled small domains, quantitative proteomics
- Measurement context: stress: 50 degC
Each record's soluble fraction (log2) is compared with 1: < -0.4; 2: ≥ -0.4 and < -0.2; 3: ≥ -0.2 to give its class.

Examples with answers:
{"columns": ["Residue string", "Category"],
 "data": [
  ["HMITKENYLEKIKEIKVNEFPASMRELYDFFNEATRNGTDWSAYEEGNVKYVVDAYLERLNLLYKSN", 3],
  ["HMQVEMVLSQEAHEWLLQRGFIPEYGAREMDRVIAAHLKPLLMREILFGTLKAGGKVRVQVENGALKLQP", 1],
  ["HMKDTNENLMKMLALLIHAAKIDENYSDEEKELIVNFAEMSSKENLNREQILSIIKSAEEYE", 1],
  ["HMTKRTVKSVARKIADFNRERHRMPTYEEMLTLLAVRSKSVVHFWMNKLLQEGILEKDESGHLTFV", 3]
]}

query: Lab log: "HMFEDYNELDEYLETRFIPTYVLLKQRKNANGEIDHFPSIRLQHIMALKLSEAELEHVMNYLKEKNIRVG" — assign soluble fraction (log2) category
result: 2

query: Same again, this time with "HMADNILPAQTDAIKALATENGFSNESLEKYLIENYGTTIYGLSRNQGIQIINLFQSENPPKP"
result: 3

query: Next entry: "HMRGLVPEIVGTLEGEIRAGTLAVGQKLPTEAEIMARFDVSRTVVREALSRLQASDLVETRHGIGTFVSAR"
result: 2

query: Also need "HMNFTMERLYTKELTSEDIDEIKKELNSMGYTEGVEFNIIKGDKTSFIMAERQLKAKMLSHLSDLGLPRGA" , thanks.
result: 3

query: What about this sequence? "HMDFDLIAIFEEQFARALSPIEINIIKEWKNSNYSDDMIVKALKEAVKSQVFNFRYIERILINWSQNG"
result: 2

query: Next: "HMSYKFDSLAIILNKLDGKETVNVSSLSDELEVSARTVHRYIGTLQVAGFPIEYDKTKNSYIFSEGYTL"
result: 1

query: Ok, now "HMIHFDHPERSILDTMLYEKKGMTAQSARNRLAAYQFQGEDVFKPVSVLSGGELSRITLAIKNAMADK"
result: 3

query: What about "HMVANDQILNQYGISDREAEIIGLLIEGLSNQQIAKQLYISPNTVKTHIKNIYAKVGVNNRLQLFSLLK" ?
result: 3

query: Entry to check: "HMRVDRSALDSIPGVGPGRKRTLLHHFGSARAVEASGLADLESIRGISKALARKIYDFFHPE"
result: 1

query: Next record, please: "HMTVKVPDLRGKTLAEMQRILDDAGLKYEINDSTFSRTAIPGTVREVIPAPGSEVKLGRILFIAINGF"
result: 1

query: Query "HMGDGAWQQGEGGRWWYKYNNGTYPKDRVVTIGGKKYGFDSEGWMLSDTTKAFGGTTYSFAADGVATAQA" next
result: 3

query: Ok, now "HMKRNTKAEVLEILLNSGETPVSGERLAENLGISRNAVWKAVTALKEDGYNISAKRNSGYILNKS"
result: 3

query: One more sequence: "HMDEAETELIRRMVSEHPPTTKRERDIVQMRLRGYLFVEIGEAYGISFQRAAQIYNAAVEKIKEYWD"
result: 3

====

- Measurement description: soluble fraction after stress (log2 fold change); higher = more stays soluble; pooled small domains, quantitative proteomics
- Measurement context: stress: 50 degC
soluble fraction (log2) for assorted sequences
The reply should be a number, written without any unit.

// below: answered sequences
{"columns": ["Residue string", "soluble fraction (log2)"],
 "data": [
  ["HMVAGHLQEKNGQFYAVLSYKDTKGKRRTKWVPTGLMVRGNKKRAEAMLNDIRRKFVPPEQED", 0.0995],
  ["HMVSDTGAIEAIVAQVLADNPKLVEGYLATPEDKRGKAIGPFIGLTRKAAAGVNPQVVMDVLKKKLSEL", -0.0515],
  ["HMDDVVVLPFTAEFARMSSDDFVREILVGKIGMKRFVVGYNHRFGSGQQGDFASLQRMQGELGFVAVRVG", 0.0571],
  ["HMATPTMEDYIEVIYSLVKTKGYARSADIAEKLEVYPSTVTKMLKKLDAEGYIVYEKYRGIALTDIGKKMG", -1.73],
  ["HMKVEFDAMDKRILELMAKEYDTVLMARHLPLTPIVIDVRKKRIREVLNLPDATDAEIVIEAKEKDII", -0.322]
]}

query: Given "HMPGGLSAEDVEKMVEKVLTVNGDVVEEIRSGRDPKGKKIKFLAGLVMRDARGQADAAAVSGILERRLKEG" , state its recorded soluble fraction (log2).
result: 0.133

query: What do you get for "HMLLNLSPIETQVLRLIQQDKKVTYESIGKELTIGQTKVYKVLGHLKELNVIERIGGRTYGHWHILL" ?
result: -1.03

query: Another: "HMQPNVTRERILAAAMTVFAQKGWQKTSLDEVAAAAGMTKGAIYWHFRNKNDLFFALLDARLQRD"
result: -1.97

query: Follow-up item: "HMAQFNELLFELRQDRKMTQEDLAKVLFVTSGTISNYENGVHLPDIEKLISLADFFGVTTDYLLG"
result: -0.104

query: // same read-out, input: "HMSFGESLKKLSIALNSIRKLATTDAGKKDPKVADLLGQIRDTFNSYRTHLRKNYPDLYSGIKNQL"
result: -0.62

query: "HMILESREKYLGEVLEVLVEEEKEGEYFGYSQNYLRVKFKLEEKNLINQLINIKIKSIEDDILIGEKEN" ?
result: -1.46

query: Also check "HMKYSYAELTKLQEQIAQDRNAPLTVPNALGIGLDERNNVIEITVNIADEAAAKAYYLQKYGDRISLKTTD"
result: 0.117

query: What about this sequence? "HMLPLLAFDEKLNRLGYGGGFYDRTLASLAHKGNTITAIGIAYESQKMDKVPTGYFDRPLDGVLTPSGLIM"
result: 0.0274

query: How about this sequence: "HMFDLKKIYGTILDETKSSLLLSTDDGREVQIIKTDGTEVLASGLGVYVEVAYRDETPDGYPIALTI"
result: -0.193

query: Would you kindly repeat that for "HMKHSLNHLGLWLLPELSRRDIQLREFAHLLGTTSQGLSDLLRGQRFSSHTLAQWQLRFQEKLDEIDQAS" ?
result: -1.11

query: Repeat with "HMVTDTGEIEAIIDRVISENPDSVSDFKNGKERALKFLMGQAMKESKGKANPQIVNELLLKKL"
result: 0.264

query: Also "HMGGGRELGLDPETGKKISVRLGKFGPFVQLGESGEEDKPVFANLGKNQSIATLSLEEAIALLARPK" ?
result: 0.246

query: Record: "HMAGTRVWSENGQLYVTAAVSGRANVYNVLGKLNRSLTFSAGETKSVSVPAGIYVVSLNNGKAYKVAV"
result: -1.67

query: // next record "HMTSLAGIERFLASGAIAGVGEAMAHRLVQKFGKETLEIIEKKPSRLTEVAGVGKKTAAKIHASYMEK"
result: -0.106

query: Cool, now "HMQTNEAIINQAVQAAEAQNITTRSQAVDALKANGMTEAQARQLAVQRGISYDQLINELFPME"
result: -0.0275

query: Let us now turn to "HMEEDPVISQAQRQALFKLAHDHFGQEEGNKVILRLIGEHGLRSTTNMTASVYKTVTDALIQVIESMVEG"
result: -0.0318

query: Now this one: "HMSQLVTGVLRNLNDISEKIAAGKAVPEMLGRLENMQQMIANLKGNEGLIKSISILTRSAQDALR"
result: 0.00825

query: Same question for "HMGQKETIVDLLKTNGTMTQLALAEAIYGDKNHGPNIYSVLMGRVNSGAVLRTGSQPAYYSLSG" please.
result: 0.0821

query: Also "HMSGPMVPNVVGLSEEMARALLSDYSITIKHAHDGVIPKDRVASQLPLATTHAKVGSSVVLTIS" ?
result: -0.354
